STUDY TARGET: NNV
METHOD: BIAcore
READOUT LABEL: Kd (nM)
Response body: numeric value in nM, unit text excluded.

What value of measured Kd is listed for LY6G6D (other) NRMRCYNCGGSPSSSCKEAVTTCGEGRPQPGLEQIKLPGNPPVTLIHQHPACVAAHHCNQVETESVGDVTYPAHRDCYLGDLCNS ?
0.22
